Hi there, I'd appreciate the recorded IC50 for every entry that follows.
# testSystem: UniProtKB P0DMS8
# Sequence (P0DMS8 whole entry): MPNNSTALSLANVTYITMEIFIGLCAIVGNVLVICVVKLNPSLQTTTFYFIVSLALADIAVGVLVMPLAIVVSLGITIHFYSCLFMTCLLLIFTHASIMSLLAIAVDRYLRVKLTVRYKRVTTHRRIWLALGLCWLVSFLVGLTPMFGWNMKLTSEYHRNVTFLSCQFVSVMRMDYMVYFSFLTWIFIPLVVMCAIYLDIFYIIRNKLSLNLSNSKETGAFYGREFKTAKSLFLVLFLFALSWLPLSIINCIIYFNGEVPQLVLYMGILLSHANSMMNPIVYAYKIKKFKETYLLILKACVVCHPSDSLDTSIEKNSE
# assayDetails: Antagonist activity at human adenosine A3 receptor expressed in CHO cells assessed as forskolin/C1-IB-MECA-induced inhibition of cAMP production
Write the value in nM as a bare number.

Entry under review: `Cn1cc2c(nc(NC(=O)NC3CCN(Cc4ccc([N+](=O)[O-])cc4)CC3)n3nc(-c4ccco4)nc23)n1` . Reported IC50?
42

Try this molecule too: `Cn1cc2c(nc(NC(=O)NC3CCN(C(=O)Nc4ccncc4)CC3)n3nc(-c4ccco4)nc23)n1`
82

Moving on to the next molecule: `Cn1cc2c(nc(NC(=O)NC3CCN(Cc4ccc(F)cc4)CC3)n3nc(-c4ccco4)nc23)n1`
82

Moving on to `CCNC(=O)N1CCC(NC(=O)Nc2nc3nn(C)cc3c3nc(-c4ccco4)nn23)CC1`
116

Same again, this time with `Cn1cc2c(nc(NC(=O)NC3CCN(C(=O)NCc4ccccc4)CC3)n3nc(-c4ccco4)nc23)n1`
29

Here is the next molecule: `Cn1cc2c(nc(NC(=O)NC3CCN(Cc4cccnc4)CC3)n3nc(-c4ccco4)nc23)n1`
180

Request: `Cn1cc2c(nc(NC(=O)NC3CCN(C(=O)NCc4ccc(Cl)cc4)CC3)n3nc(-c4ccco4)nc23)n1`
90

Same read-out for `CCOC(=O)CN1CCC(NC(=O)Nc2nc3nn(C)cc3c3nc(-c4ccco4)nn23)CC1` ?
41

Repeat for the following molecule: `Cc1ccc(CN2CCC(NC(=O)Nc3nc4nn(C)cc4c4nc(-c5ccco5)nn34)CC2)cc1`
50

For `Cl.Cn1cc2c(nc(NC(=O)NC3CCN(CC4CCCCC4)CC3)n3nc(-c4ccco4)nc23)n1` then?
30

Then what about the molecule `C#CCN1CCC(NC(=O)Nc2nc3nn(C)cc3c3nc(-c4ccco4)nn23)CC1` ?
105

// next record `Cn1cc2c(nc(NC(=O)NC3CCN(C(=O)NCCCc4ccccc4)CC3)n3nc(-c4ccco4)nc23)n1`
46

Then `COc1ccc(CNC(=O)N2CCC(NC(=O)Nc3nc4nn(C)cc4c4nc(-c5ccco5)nn34)CC2)cc1` ?
34

Same question, `CN1CCN(C(=O)N2CCC(NC(=O)Nc3nc4nn(C)cc4c4nc(-c5ccco5)nn34)CC2)CC1` this time
120

Repeat for the following molecule: `Cn1cc2c(nc(NC(=O)NC3CCN(C(=O)NCc4ccc(F)cc4)CC3)n3nc(-c4ccco4)nc23)n1`
15

Moving on to the next molecule: `Cn1cc2c(nc(NC(=O)NC3CCNCC3)n3nc(-c4ccco4)nc23)n1`
262

Moving on to the next molecule: `C=CCN1CCC(NC(=O)Nc2nc3nn(C)cc3c3nc(-c4ccco4)nn23)CC1`
212

Param item: `COc1ccc(CN2CCC(NC(=O)Nc3nc4nn(C)cc4c4nc(-c5ccco5)nn34)CC2)cc1`
45

Repeat for the following molecule: `Cn1cc2c(nc(NC(=O)NC3CCN(Cc4ccncc4)CC3)n3nc(-c4ccco4)nc23)n1`
166

// query: `Cn1cc2c(nc(NC(=O)NC3CCN(Cc4ccccc4)CC3)n3nc(-c4ccco4)nc23)n1`
121

Next molecule: `CCCN1CCC(NC(=O)Nc2nc3nn(C)cc3c3nc(-c4ccco4)nn23)CC1`
301

Subsequent entry: `CN1CCC(NC(=O)Nc2nc3nn(C)cc3c3nc(-c4ccco4)nn23)CC1`
910

Repeat for the following molecule: `Cn1cc2c(nc(NC(=O)NC3CCN(C(=O)NC4CCCCCC4)CC3)n3nc(-c4ccco4)nc23)n1`
26

Cited source: ChEMBL document CHEMBL2069218
